Target: PI3K-gamma (Homo sapiens, UniProt P48736)
Sequence (P48736 whole entry, species assumed): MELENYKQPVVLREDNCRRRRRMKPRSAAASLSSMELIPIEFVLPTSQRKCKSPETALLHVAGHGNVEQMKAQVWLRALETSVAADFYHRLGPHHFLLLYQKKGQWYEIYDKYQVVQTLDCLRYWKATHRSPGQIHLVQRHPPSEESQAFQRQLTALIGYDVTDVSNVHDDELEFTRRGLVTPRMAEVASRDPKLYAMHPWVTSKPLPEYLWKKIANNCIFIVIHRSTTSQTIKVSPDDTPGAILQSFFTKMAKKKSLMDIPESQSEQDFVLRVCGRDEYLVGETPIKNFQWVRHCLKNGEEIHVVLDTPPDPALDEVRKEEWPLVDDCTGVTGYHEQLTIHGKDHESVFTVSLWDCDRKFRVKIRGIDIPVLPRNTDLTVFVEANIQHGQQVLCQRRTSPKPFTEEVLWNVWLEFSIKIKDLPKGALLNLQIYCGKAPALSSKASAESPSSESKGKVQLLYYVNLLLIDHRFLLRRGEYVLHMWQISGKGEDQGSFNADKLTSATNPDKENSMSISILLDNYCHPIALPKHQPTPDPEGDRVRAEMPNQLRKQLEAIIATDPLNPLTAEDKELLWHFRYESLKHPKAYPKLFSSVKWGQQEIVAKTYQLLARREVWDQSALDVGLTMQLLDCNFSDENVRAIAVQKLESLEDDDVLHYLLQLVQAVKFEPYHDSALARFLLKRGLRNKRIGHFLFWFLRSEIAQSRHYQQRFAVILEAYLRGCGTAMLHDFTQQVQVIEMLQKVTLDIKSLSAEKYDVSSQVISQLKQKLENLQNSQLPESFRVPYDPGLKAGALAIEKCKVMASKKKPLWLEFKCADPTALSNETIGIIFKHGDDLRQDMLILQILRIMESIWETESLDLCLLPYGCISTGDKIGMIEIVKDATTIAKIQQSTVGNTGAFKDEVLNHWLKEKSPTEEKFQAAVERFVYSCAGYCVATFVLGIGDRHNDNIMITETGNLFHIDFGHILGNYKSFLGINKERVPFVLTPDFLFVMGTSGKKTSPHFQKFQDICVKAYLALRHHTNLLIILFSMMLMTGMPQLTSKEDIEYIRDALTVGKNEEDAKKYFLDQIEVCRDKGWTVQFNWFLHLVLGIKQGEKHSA
Assay: PI3K-gamma fluorescence polarization assay
Type: biochemical
Conditions: PI3Kγ Avg. IC50
The entries below are paired with their reported IC50.
endpoint.label: IC50

> print(dat)
                                  smiles.str      result
 1  Cn1cc(/C=C2\Oc3cc(O)cc(O)c3C2=O)c2c(-c3ccc(C(=O)NCc4ccco4)cc3)cccc21  > 10000 nM
 2  COc1ccc2[nH]cc(C=C3Oc4cc(S(C)(=O)=O)ccc4C3=O)c2c1  > 10000 nM
 3  CNC(=O)Nc1ccc2c(c1)O/C(=C\c1cn(CCCN(C)C)c3ccc(OC)cc13)C2=O  > 10000 nM
 4  Cn1cc(/C=C2\Oc3c(Br)ccc(O)c3C2=O)c2c(-c3ccccc3)cccc21   > 5000 nM
 5  COc1ccc2[nH]c(-c3ccccc3)c(/C=C3\Oc4cccc(O)c4C3=O)c2c1       65 nM
 6  CNC(=O)Nc1ccc2c(c1)C(=O)/C(=C/c1c(-c3c(OC)cccc3OC)[nH]c3ccc(OC)cc13)O2     18.5 nM
 7  COc1cc2c(C=C3Oc4cc(O)cc(O)c4C3=O)c(C)[nH]c2cc1C      544 nM
 8  COc1ccc2[nH]c(C)c(C=C3Oc4c(O)cccc4C3=O)c2c1    10300 nM
 9  COc1ccc2c(c1)c(/C=C1\Oc3cc(O)c(C)cc3C1=O)c(C)n2CCN1CCN(C)CC1     4350 nM
10  COc1ccc2[nH]c(-c3ccccc3)c(C=C3Oc4cc(O)cc(O)c4C3=O)c2c1     13.4 nM

###

Molecular target: PI3K-gamma (Homo sapiens)
Assay: PI3K-gamma fluorescence polarization assay
Assay type: biochemical
Conditions: PI3Kγ Avg. IC50
The entries below are paired with their reported IC50.
endpoint.label: IC50 (nM)

> print(dat)
                                   compound  numeric.value
1  COc1ccc2c(c1)c(/C=C1\Oc3cc(O)cc(O)c3C1=O)c(C(=O)N(C)C)n2CCn1ccnc1 [Example 314]            116
2  COc1ccc2c(c1)c(/C=C1\Oc3cc(O)ccc3C1=O)c(C)n2CCN1CCN(C)CC1 [Example 303]             70
3  COc1ccc2c(c1)c(C=C1Oc3cc(O)cc(O)c3C1=O)c(C)n2CCCN1CCC(N(C)C)C1 (stereo not shown) [Example 104]            162
4  COc1ccc2c(c1)c(/C=C1\Oc3cc(O)cc(O)c3C1=O)c(-c1c(C)noc1C)n2CCN1CCN(C)CC1 [Example 344]             99

Values were extracted from patent US20090311217A1.
